- Subject of test: Hsp90-CHIP (Saccharomyces cerevisiae)
- Construct: made in house
- Sequence (P02829 whole entry): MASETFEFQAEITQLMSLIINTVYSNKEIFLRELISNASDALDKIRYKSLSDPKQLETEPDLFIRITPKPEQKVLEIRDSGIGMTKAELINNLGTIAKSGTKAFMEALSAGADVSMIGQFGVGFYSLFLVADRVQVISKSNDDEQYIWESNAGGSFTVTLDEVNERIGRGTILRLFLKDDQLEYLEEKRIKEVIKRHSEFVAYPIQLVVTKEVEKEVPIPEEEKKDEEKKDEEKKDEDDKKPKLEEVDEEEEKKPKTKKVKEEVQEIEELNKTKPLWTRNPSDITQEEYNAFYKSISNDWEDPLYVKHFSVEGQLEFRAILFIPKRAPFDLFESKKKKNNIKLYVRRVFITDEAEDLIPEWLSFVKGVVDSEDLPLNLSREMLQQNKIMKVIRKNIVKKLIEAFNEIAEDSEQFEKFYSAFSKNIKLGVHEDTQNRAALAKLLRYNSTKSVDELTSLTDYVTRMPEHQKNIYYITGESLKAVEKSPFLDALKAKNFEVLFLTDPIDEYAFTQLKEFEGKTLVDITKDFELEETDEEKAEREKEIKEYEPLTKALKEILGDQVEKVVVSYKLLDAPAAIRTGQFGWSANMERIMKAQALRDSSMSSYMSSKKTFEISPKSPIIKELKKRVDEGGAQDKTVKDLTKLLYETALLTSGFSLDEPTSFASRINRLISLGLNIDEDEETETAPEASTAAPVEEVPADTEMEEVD
- Sequence (Q9WUD1 whole entry partner): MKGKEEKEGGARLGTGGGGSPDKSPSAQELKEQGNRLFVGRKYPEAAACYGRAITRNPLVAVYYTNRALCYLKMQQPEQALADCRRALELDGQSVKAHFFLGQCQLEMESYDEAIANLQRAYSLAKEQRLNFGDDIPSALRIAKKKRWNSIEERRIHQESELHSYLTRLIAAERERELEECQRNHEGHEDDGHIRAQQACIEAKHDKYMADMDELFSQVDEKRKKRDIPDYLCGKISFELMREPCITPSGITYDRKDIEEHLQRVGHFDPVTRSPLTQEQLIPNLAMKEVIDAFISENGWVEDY
- Experiment: ITC, LA1011 binding to Hsp90-mouse CHIP complex
- Parameters: species or system yeast
- Condition context: 20 μM Hsp90, 60 μM CHIP, 1:1 fit, read-out: Kd (1:1)
Endpoint label: Kd (µM)
Answers are plain numbers, in µM.

Inquiry: I would be grateful if you could share the reported Kd for COC(=O)C1=C(CCN(C)C)N(C)C(CCN(C)C)=C(C(=O)OC)C1c1ccc(C(F)(F)F)cc1.Cl.Cl .
Reply text: 56.2

* * *

- Subject of test: Hsp90-Sgt1 (Saccharomyces cerevisiae, UniProt P02829)
- Experiment: ITC, LA1011 binding to Hsp90-Sgt1 complex
- Condition context: 30 μM Hsp90, 60 μM Sgt1, 100 mM NaCl, 2:1 fit
Endpoint label: Kd (µM)
One number for each entry, in µM.

Inquiry: I would be grateful if you could share the reported Kd for COC(=O)C1=C(CCN(C)C)N(C)C(CCN(C)C)=C(C(=O)OC)C1c1ccc(C(F)(F)F)cc1.Cl.Cl .
Reply text: 8.2

These data points were gathered from paper PMC12757481.
